Exercise: state measured HL50 (concentration at which 50% of red blood cells were lysed) for each of the substances provided.
System: human red blood cells
Experiment: Haemolytic effects on human red blood cells
Type: cell-based
Details: 1 h
Where no end group is shown, it is not given here.
Just the number plus its unit, please.

Exercise: Suppose we examine the substance GFKDLLKGAAKALVKTVLF-NH2 [Ascaphin-8] ; what HL50 (concentration at which 50% of red blood cells were lysed) value has been reported?
Key: 45 µM

Exercise: Moving on to FFHHIFRGIVHVGKTIHRLVTG [Piscidin 1]
Key: 20 µM

Exercise: Now try GLLGLLGSVVSHVVPAIVGHF-NH2 [Maculatin 1.3] .
Key: 25 µM

Exercise: Next: FFGKVLKLIRKIF-NH2 [DASamP1]
Key: 25 µM
